Origin of the recorded values: the supplement of paper PMC5998384

Recorded measurements of solubility in G1/S (log2), one per entry
# Test system: HeLa Kyoto;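 further: HeLa Kyoto cells arrested at G1/S by double thymidine block, proteins quantified by TMT10plex mass spectrometry in mild NP-40 versus SDS extracts, three biological replicates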
# Protocol description: solubility in G1/S (NP-40 vs SDS abundance) (log2 ratio); higher = more soluble
# Test context: cell cycle stage: G1/S
Enter a number only.

Request: Determine its reported solubility in G1/S (log2): MPEINTNHLDKQQVQLLAEMCILIDENDNKIGAETKKNCHLNENIEKGLLHRAFSVFLFNTENKLLLQQRSDAKITFPGCFTNTCCSHPLSNPAELEESDALGVRRAAQRRLKAELGIPLEEVPPEEINYLTRIHYKAQSDGIWGEHEIDYILLVRKNVTLNPDPNEIKSYCYVSKEELKELLKKAASGEIKITPWFKIIAATFLFKWWDNLNHLNQFVDHEKIYRM [IDI1]
Result: 0.145
